# TEST_SYSTEM: T1, EsCas13d, nuclease-dead (Eubacterium siraeum, UniProt B0MS50, R295A;H300A;R849A;H854A)
# T1 sequence: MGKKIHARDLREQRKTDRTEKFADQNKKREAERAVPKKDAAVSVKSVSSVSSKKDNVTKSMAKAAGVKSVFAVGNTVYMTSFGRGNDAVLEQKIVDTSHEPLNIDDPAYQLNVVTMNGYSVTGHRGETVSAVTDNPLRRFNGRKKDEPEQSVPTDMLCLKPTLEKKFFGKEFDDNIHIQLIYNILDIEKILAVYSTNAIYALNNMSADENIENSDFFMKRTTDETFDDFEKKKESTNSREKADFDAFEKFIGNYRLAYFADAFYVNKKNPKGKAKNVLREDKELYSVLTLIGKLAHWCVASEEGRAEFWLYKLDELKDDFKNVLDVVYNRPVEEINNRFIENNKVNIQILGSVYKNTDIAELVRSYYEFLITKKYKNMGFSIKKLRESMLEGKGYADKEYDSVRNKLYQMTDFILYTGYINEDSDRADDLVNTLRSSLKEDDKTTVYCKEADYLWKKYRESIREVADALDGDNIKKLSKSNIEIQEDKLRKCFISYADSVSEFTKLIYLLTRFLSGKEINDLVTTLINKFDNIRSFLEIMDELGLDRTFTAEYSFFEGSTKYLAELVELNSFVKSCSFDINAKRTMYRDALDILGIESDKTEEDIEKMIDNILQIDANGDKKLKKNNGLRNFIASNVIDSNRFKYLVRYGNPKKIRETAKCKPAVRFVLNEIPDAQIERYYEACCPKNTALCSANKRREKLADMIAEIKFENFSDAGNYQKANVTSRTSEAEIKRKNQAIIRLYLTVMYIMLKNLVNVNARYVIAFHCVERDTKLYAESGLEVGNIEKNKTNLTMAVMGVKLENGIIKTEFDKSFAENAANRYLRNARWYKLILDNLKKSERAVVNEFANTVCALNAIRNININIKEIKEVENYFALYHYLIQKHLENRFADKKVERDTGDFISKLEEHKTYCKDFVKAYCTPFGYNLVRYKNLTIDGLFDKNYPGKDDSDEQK
# EXPERIMENTAL_PROTOCOL: crRNA (strand 1, pre-loaded); Mg2+; 40 mM Tris-HCl pH 7.5, 150 mM NaCl, 6 mM MgCl2, 1 mM DTT, 0.1% Tween-20, 0.2 mg/ml BSA; 25 C; 10 min per concentration, then washed
# MEASUREMENT_SETUP: tags: His6-TwinStrep-SUMO cleaved; N-terminal SNAP kept (SNAP-Surface 488); label: 3' end held by stalled T7 RNA polymerase
pKd: −log10 of the molar value.
Below, each entry is listed alongside its reported pKd.
QUANTITY_NAME: pKd

| BINDER | QUANTITY_NAME | TEST_VALUE |
| --- | --- | --- |
| target 3 insA 3' of 22,insA 3' of 21 (mixed) RNA 1: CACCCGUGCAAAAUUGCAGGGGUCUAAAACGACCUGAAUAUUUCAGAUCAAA RNA 2: GGGAAUGGAUCCACAUCUACGAAUUCGUUUAUAUGAUCUGAAAUAUUCAGGUCUGCAGAUCGGAAGAGCACACGU | pKd | 7.50 |
| target 3 C1U,C16U (mixed) RNA 1: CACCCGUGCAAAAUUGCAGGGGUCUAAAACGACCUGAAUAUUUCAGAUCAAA RNA 2: GGGAAUGGAUCCACAUCUACGAAUUCGUUUUUGAUUUGAAAUAUUCAGGUUUGCAGAUCGGAAGAGCACACGU | pKd | 7.18 |
| target 1 insC 3' of 16,insA 3' of 3 (mixed) RNA 1: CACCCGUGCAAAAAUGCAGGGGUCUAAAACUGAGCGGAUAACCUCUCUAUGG RNA 2: GGGAAUGGAUCCACAUCUACGAAUUCGUACCAUAGACGAGGUUAUCCGCUACACCGAGAUCGGAAGAGCACACGU | pKd | 7.21 |
| target 1 insG 3' of 8,insC 3' of 3 (mixed) RNA 1: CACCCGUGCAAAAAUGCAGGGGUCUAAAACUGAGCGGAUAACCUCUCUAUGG RNA 2: GGGAAUGGAUCCACAUCUACGAAUUCGUACCAUAGAGAGGUUAUGCCGCUCCACCGAGAUCGGAAGAGCACACGU | pKd | 7.90 |
